Below: a set of entries, each annotated with reported LC retention time.
# assay text: RP, Waters ACQUITY UPLC BEH C18, 100 × 2.1 mm, 1.7 µm, 0.3 mL/min, estimated dead time 0.73 min; A: water + 0.1% formic acid, pH 3; B: methanol + 0.1% formic acid, pH 3; gradient (min/%B) 0/10 14/90 16/90 18/10
# measurement parameters: stereoisomer not certain
measurement name: LC retention time (min)

{"compound": "Cc1onc(-c2c(Cl)cccc2Cl)c1C(=O)NC1C(=O)N2C1SC(C)(C)C2C(=O)O (centres undefined) [Dicloxacillin]", "value units": "min", "numeric result": 10.4}
{"compound": "CNC(=O)ON=C(C)SC [Methomyl]", "value units": "min", "numeric result": 3.09}
{"compound": "CC1CCc2cc(F)cc3c(=O)c(C(=O)O)cn1c23 (centres undefined) [Flumequine]", "value units": "min", "numeric result": 7.49}
{"compound": "CCNP(=S)(OC)OC(C)=CC(=O)OC(C)C (centres undefined) [Propetamphos]", "value units": "min", "numeric result": 10.6}
{"compound": "COP(=S)(OC)Oc1ccc(SC)c(C)c1 [Fenthion]", "value units": "min", "numeric result": 11.7}
{"compound": "CNC(C)Cc1ccc2c(c1)OCO2 (centres undefined) [MDMA]", "value units": "min", "numeric result": 3.79}
{"compound": "CN1C(=O)C(O)N=C(c2ccccc2)c2cc(Cl)ccc21 (centres undefined) [Temazepam]", "value units": "min", "numeric result": 10.1}
{"compound": "FC(F)C(F)(F)OCC(Cn1cncn1)c1ccc(Cl)cc1Cl (centres undefined) [Tetraconazole]", "value units": "min", "numeric result": 11.6}
{"compound": "CNC(=O)c1cc(Cl)cc(C)c1NC(=O)c1cc(Br)nn1-c1ncccc1Cl [Chlorantraniliprole]", "value units": "min", "numeric result": 10.4}
{"compound": "CCOC(=O)c1cn2nc(OP(=S)(OCC)OCC)cc2nc1C [Pyrazophos]", "value units": "min", "numeric result": 11.9}
{"compound": "C[Si](Cn1cncn1)(c1ccc(F)cc1)c1ccc(F)cc1 [Flusilazole]", "value units": "min", "numeric result": 11.4}
{"compound": "CCC(C)C1OC2(C=CC1C)CC1CC(CC=C(C)C(OC3CC(OC)C(OC4CC(OC)C(NC(C)=O)C(C)O4)C(C)O3)C(C)C=CC=C3COC4C(O)C(C)=CC(C(=O)O1)C34O)O2 (centres undefined) [Eprinomectin]", "value units": "min", "numeric result": 15.1}
{"compound": "COCC(C)N(C(=O)CCl)c1c(C)csc1C (centres undefined) [Dimethenamid]", "value units": "min", "numeric result": 10.1}
{"compound": "CC(C)N(C(=O)CCl)c1ccccc1 [Propachlor]", "value units": "min", "numeric result": 8.99}
{"compound": "NC(=NN=Cc1ccc(Cl)cc1)NN=Cc1ccc(Cl)cc1 [Robenidine]", "value units": "min", "numeric result": 10.9}
{"compound": "Clc1ccc(C2(Cn3cncn3)CC(Br)CO2)c(Cl)c1 (centres undefined) [Bromuconazole I]", "value units": "min", "numeric result": 10.6}
{"compound": "CCOP(=O)(SC(C)CC)SC(C)CC (centres undefined) [Cadusafos]", "value units": "min", "numeric result": 12.2}
{"compound": "O=c1c2cc(F)ccc2nc(-n2cncn2)n1-c1ccc(Cl)cc1Cl [Fluquinconazole]", "value units": "min", "numeric result": 10.7}
{"compound": "CC(C)=CC1C(C(=O)OCN2C(=O)C3=C(CCCC3)C2=O)C1(C)C (centres undefined) [Tetramethrin]", "value units": "min", "numeric result": 12.8}
